molecular target: CDK6/Cyclin D3 (Homo sapiens (Human), UniProt Q00534); test: CDK6/Cyclin D3 ADP-Glo Kinase Assay; conditions: 100 uM ATP, read-out: CDK6/ CyclinD3 IC50
Sequence (Q00534 whole entry): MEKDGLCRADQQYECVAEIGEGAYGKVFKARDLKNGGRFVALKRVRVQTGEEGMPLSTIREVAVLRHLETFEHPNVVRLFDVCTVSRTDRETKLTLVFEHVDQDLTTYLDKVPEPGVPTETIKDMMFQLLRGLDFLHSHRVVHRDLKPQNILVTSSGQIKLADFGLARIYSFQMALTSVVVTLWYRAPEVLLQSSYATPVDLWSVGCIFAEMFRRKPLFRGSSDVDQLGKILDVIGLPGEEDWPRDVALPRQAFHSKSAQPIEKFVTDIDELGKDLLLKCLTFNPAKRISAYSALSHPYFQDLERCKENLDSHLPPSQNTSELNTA
Sequence (P30281 whole entry partner): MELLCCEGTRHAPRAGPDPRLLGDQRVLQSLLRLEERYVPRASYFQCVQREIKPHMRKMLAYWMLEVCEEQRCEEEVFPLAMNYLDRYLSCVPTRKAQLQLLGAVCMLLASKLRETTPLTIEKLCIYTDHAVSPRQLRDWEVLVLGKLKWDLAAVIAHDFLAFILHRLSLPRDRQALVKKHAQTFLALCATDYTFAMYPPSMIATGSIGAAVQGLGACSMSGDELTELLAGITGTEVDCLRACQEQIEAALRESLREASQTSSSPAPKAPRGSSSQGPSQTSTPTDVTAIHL
Below, each entry is listed with its recorded IC50.

Would you please look over these solved cases?
Query: With CDK6/Cyclin D3 (Homo sapiens (Human), UniProt Q00534) as the test system, provide measured IC50 for this molecule: O=S(=O)(C1CC1)N1CCC(Nc2ncc3cc(C(F)F)cc(C4CC5(C4)CN(CC(F)F)C5)c3n2)CC1 [Example 90]
Response: < 0.2 µM

Query: With CDK6/Cyclin D3 (Homo sapiens (Human), UniProt Q00534) as the test system, provide measured IC50 for this molecule: CC(=O)N1CCC2(CCN(c3cccc4cnc(Nc5ccc(N6CCN(C)CC6)cc5)nc34)C2)C1 (stereo not shown) [Example 33]
Response: < 0.2 µM

Query: With CDK6/Cyclin D3 (Homo sapiens (Human), UniProt Q00534) as the test system, provide measured IC50 for this molecule: CS(=O)(=O)N1CCC(Nc2ncc3cccc(C4CC5(CNCC5(F)F)C4)c3n2)CC1 (stereo not shown) [Example 122]
Response: < 0.2 µM

Query: With CDK6/Cyclin D3 (Homo sapiens (Human), UniProt Q00534) as the test system, provide measured IC50 for this molecule: CC(=O)N1CCC2(CCN(c3cc(C(F)F)cc4cnc(NC5CCN(S(C)(=O)=O)CC5)nc34)C2)C1 (stereo not shown) [Example 50]
Response: < 0.2 µM

Others:
Query: With CDK6/Cyclin D3 (Homo sapiens (Human), UniProt Q00534) as the test system, provide measured IC50 for this molecule: CS(=O)(=O)N1CCC(Nc2ncc3cccc(C4CCCC4)c3n2)CC1 [Example 1]
Response: < 0.2 µM

Query: With CDK6/Cyclin D3 (Homo sapiens (Human), UniProt Q00534) as the test system, provide measured IC50 for this molecule: CCN1CC2(C1)CN(c1ccc(Nc3ncc4cccc(N5CC6(C5)CC(F)(F)C6)c4n3)nc1)C2 [Example 49]
Response: 0.2 to 0.5 µM

Query: With CDK6/Cyclin D3 (Homo sapiens (Human), UniProt Q00534) as the test system, provide measured IC50 for this molecule: CS(=O)(=O)N1CCC(Nc2ncc3cccc(N4CCCC5(COC5)C4)c3n2)CC1 [Example 8]
Response: 0.5 to 2 µM

Query: With CDK6/Cyclin D3 (Homo sapiens (Human), UniProt Q00534) as the test system, provide measured IC50 for this molecule: FC(F)c1cc(N2CC3(CCNC3)C2)c2nc(Nc3ccc4c(c3)CN(C3CC3)C4)ncc2c1 [Example 82]
Response: < 0.2 µM

Query: With CDK6/Cyclin D3 (Homo sapiens (Human), UniProt Q00534) as the test system, provide measured IC50 for this molecule: CS(=O)(=O)N1CCC(Nc2ncc3cccc(N4CCC5(CCC(F)(F)C5)C4)c3n2)CC1 (stereo not shown) [Example 34]
Response: 0.2 to 0.5 µM

Query: With CDK6/Cyclin D3 (Homo sapiens (Human), UniProt Q00534) as the test system, provide measured IC50 for this molecule: CS(=O)(=O)N1CCC(Nc2ncc3cc(C(F)(F)F)cc(N4CC5(CNCC5(F)F)C4)c3n2)CC1 [Example 116]
Response: < 0.2 µM

Query: With CDK6/Cyclin D3 (Homo sapiens (Human), UniProt Q00534) as the test system, provide measured IC50 for this molecule: CN1CC2(CCN(c3cc(C(F)F)cc4cnc(NC5CCN(S(=O)(=O)C6(C)CC6)CC5)nc34)C2)C1 [Example 83]
Response: < 0.2 µM
